Test system: 2.2.15
run-description: Cytotoxicity in 2.2.15 cells
cond: 2.2.15 cells, 50% inhibition of neutral red dye uptake, combination study
measurement-kind: CC50 (µM)
Write it as a number; the unit µM goes unstated.

IN: Please report the recorded CC50 for "Nc1ccn([C@@H]2C[C@@H](O)[C@H](CO)O2)c(=O)n1" .
OUT: 3000

###

cond: monkey, in vivo, iv, 10 mg/kg
measurement-kind: AUC(0-t) (µM·h)
Write it as a number; the unit µM·h goes unstated.

IN: Please report the recorded AUC(0-t) for Nc1ccn([C@@H]2C[C@@H](O)[C@H](CO)O2)c(=O)n1 [L-dC, 2'-deoxy-β-L-cytidine] .
OUT: 81.1

###

run-description: Stability study in buffers at various pH
Format: physicochemical
cond: pH 1.2; read-out: half-life
measurement-kind: half-life (min)
Write it as a number; the unit min goes unstated.

IN: Please report the recorded half-life for "CC(=O)Nc1ccn([C@@H]2C[C@@H](O)[C@H](CO)O2)c(=O)n1" .
OUT: 50

###

system-name: virion-associated DNA polymerase of WHV
run-description: Endogenous polymerase assay, virion-associated DNA polymerase
Format: biochemical
cond: target as printed; read-out: IC50 in vitro against hepatitis B virus DNA polymerase
measurement-kind: IC50 (µM)
Write it as a number; the unit µM goes unstated.

IN: Enter reported IC50 observed with virion-associated DNA polymerase of WHV for O=c1ccn([C@@H]2C[C@@H](O)[C@H](COP(=O)(O)OP(=O)(O)OP(=O)(O)O)O2)c(=O)[nH]1 [L-dU-TP, β-L-2'-deoxyuridine 5'-triphosphate]
OUT: 5.26

###

run-description: in vivo
Design: species or system cynomologus monkeys (macaca fascicularis)
cond: cynomolgus monkey, iv, 10 mg/kg
measurement-kind: concentration

IN: Please report the recorded concentration for "O=c1ccn([C@@H]2C[C@@H](O)[C@H](CO)O2)c(=O)[nH]1" .
OUT: 220 to 880 nM

###

Answer each item with its documented activity.
run-description: in vitro
cond: human, hepg2 cells
Write it as a number; the unit % goes unstated.

IN: Please report the recorded activity for "O=c1[nH]c(=O)n([C@@H]2O[C@H](CO)[C@@H](O)[C@@H]2F)cc1I" .
OUT: 203

IN: Please report the recorded activity for "Cc1cn([C@H]2C[C@H](N=[N+]=[N-])[C@@H](CO)O2)c(=O)[nH]c1=O" .
OUT: 239

IN: Please report the recorded activity for "Nc1ccn([C@H]2CC[C@@H](CO)O2)c(=O)n1" .
OUT: 95

###

run-description: in vivo
cond: monkey, po
Structures can show the parent of a compound that is named as a salt.
measurement-kind: bioavailability (%)
Write it as a number; the unit % goes unstated.

IN: Please report the recorded bioavailability for "CC(=O)OC[C@@H]1O[C@H](n2ccc(N)nc2=O)C[C@H]1OC(C)=O" .
OUT: 23

IN: Please report the recorded bioavailability for CC(C)[C@H](N)C(=O)OC[C@@H]1O[C@H](n2ccc(N)nc2=O)C[C@H]1O [5'-val-L-dC, hydrochloride] .
OUT: 39

IN: Please report the recorded bioavailability for CC(C)[C@H](N)C(=O)OC[C@@H]1O[C@H](n2ccc(N)nc2=O)C[C@H]1OC(=O)[C@@H](N)C(C)C [3'5'-dival-L-dC, hydrochloride] .
OUT: 72.7

IN: Please report the recorded bioavailability for "CC(C)[C@H](N)C(=O)O[C@@H]1C[C@@H](n2ccc(N)nc2=O)O[C@H]1CO" .
OUT: 85.1
